Each entry below carries its recorded UI.
assay: Ulcerogenicity in albino rat assessed as gastric lesions at 10 mg/kg, po administered as single dose after 18 hrs of starvation challenge and measured after 4 hrs; assay type: toxicity, organism-based; details: in vivo

[
  {
    "compound": "Cc1ccc(-c2cc(C(F)(F)F)nn2-c2ccc(S(N)(=O)=O)cc2)cc1 [CELECOXIB]",
    "UI": 2.7
  },
  {
    "compound": "Cc1cccc(/C=C/C2=NNC(=O)CC2)c1",
    "UI": 0.2
  },
  {
    "compound": "COc1ccc2c(c1)c(CC(=O)O)c(C)n2C(=O)c1ccc(Cl)cc1 [INDOMETHACIN]",
    "UI": 8.3
  },
  {
    "compound": "O=C1CCC(/C=C/c2cccnc2)=NN1",
    "UI": 0
  },
  {
    "compound": "COc1ccccc1/C=C/c1ccc(=O)n(-c2ccc(F)cc2)n1",
    "UI": 0
  },
  {
    "compound": "Cc1cccc(/C=C/c2ccc(=O)[nH]n2)c1",
    "UI": 0
  }
]
